measured_target: Caspase-1 (Homo sapiens)
Sequence (P29466 120-297 limits assumed): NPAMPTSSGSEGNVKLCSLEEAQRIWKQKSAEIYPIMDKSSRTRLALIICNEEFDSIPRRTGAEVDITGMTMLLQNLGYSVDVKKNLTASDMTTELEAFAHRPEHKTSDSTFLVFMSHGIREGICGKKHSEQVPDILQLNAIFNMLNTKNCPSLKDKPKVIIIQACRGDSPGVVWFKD
Sequence (P29466 317-404 limits assumed): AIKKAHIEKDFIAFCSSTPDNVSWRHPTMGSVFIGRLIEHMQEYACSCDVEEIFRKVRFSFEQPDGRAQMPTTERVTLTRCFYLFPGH
assay_notes: Tested for inhibition of cysteine proteinase IL-1 beta converting enzyme (ICE)

{"compound": "CC(C)[C@H](NC(=O)CCc1ccccc1)C(=O)N[C@@H](C)C(=O)NC(CC(=O)O)C(=O)C[S+]([O-])CCCc1ccccc1 (some centres undefined)", "Ki, nM": 27}
{"compound": "CC(C)[C@H](NC(=O)CCc1ccccc1)C(=O)N[C@@H](C)C(=O)NC(CC(=O)O)C(=O)CCCCc1ccccc1 (some centres undefined)", "Ki, nM": 100}
{"compound": "CC(C)[C@H](NC(=O)CCc1ccccc1)C(=O)N[C@@H](C)C(=O)NC(CC(=O)O)C(=O)CSCCCc1ccccc1 (some centres undefined)", "Ki, nM": 11}
{"compound": "CC(C)[C@H](NC(=O)CCc1ccccc1)C(=O)N[C@@H](C)C(=O)NC(CC(=O)O)C(=O)CN(CCc1ccccc1)Cc1ccccc1 (some centres undefined)", "Ki, nM": 60}
